B1: Caulobacter ParB omega fusion; a variant is named by its letters at X, in order, B8GW30 (parent)
chain: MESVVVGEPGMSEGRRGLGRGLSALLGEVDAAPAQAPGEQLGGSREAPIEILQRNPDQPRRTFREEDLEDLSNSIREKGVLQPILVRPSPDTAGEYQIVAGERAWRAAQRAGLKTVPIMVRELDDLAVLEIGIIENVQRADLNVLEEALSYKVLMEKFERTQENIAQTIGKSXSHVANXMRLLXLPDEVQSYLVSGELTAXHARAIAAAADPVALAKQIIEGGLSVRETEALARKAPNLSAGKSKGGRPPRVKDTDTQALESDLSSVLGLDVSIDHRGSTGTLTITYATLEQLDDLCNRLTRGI

- Variants of: B1
- Experimental Details: one-hybrid fitness for binding NBS DNA (the Noc-binding site; scaled: cognate 1, non-cognate 0); higher = stronger binding
- Assay Conditions: with NBS DNA site
Whole data set: some 81,000 sequences, median “one-hybrid fitness for binding NBS DNA” near -0.1, cut for the highest 2% near 0.36. Only a selection was taken, and the highest values are over-represented in it overall.
one-hybrid fitness for binding NBS DNA values, listed per item

Consider the variant shown here: "RMQF" What is its recorded one-hybrid fitness for binding NBS DNA?
≤ 0.2
